# System: CAKI-1
# MEASUREMENT_PROTOCOL: NCI tumour cell line growth inhibition, 48 h
Active and inactive are the calls of the source. No stated cut-off is given here; in the data, active = GI50 up to about 1.1 µM and inactive = higher.
PROPERTY_NAME: GI50

Here is how some compounds turned out for GI50.
[
  {
    "COMPOUND": "O=[N+]([O-])/C(C(Cl)=C(Cl)Cl)=C1\\NCCO1",
    "GI50": "> 100 µM (inactive)"
  },
  {
    "COMPOUND": "CCSc1nn(-c2c3ccccc3nc3ccccc23)c(=S)s1",
    "GI50": "> 100 µM (inactive)"
  },
  {
    "COMPOUND": "C=C[C@@H](C)[C@]1(C(=O)OC)CCCC12OCCO2",
    "GI50": "> 100 µM (inactive)"
  },
  {
    "COMPOUND": "COc1ccc(N2CCN(Cc3c(C(C)=O)[n+]([O-])c4ccccc4[n+]3[O-])CC2)cc1",
    "GI50": "> 100 µM (inactive)"
  },
  {
    "COMPOUND": "COc1ccc(C(Cc2cc(OC)c(OC)c(OC)c2)C(=O)O)cc1 (stereo unspecified)",
    "GI50": "64.1 µM (inactive)"
  }
]

Read the next record carefully.
Which GI50 value belongs to `Oc1c2c(c(O)c3ccccc13)C1(N=N2)c2ccccc2Oc2ccccc21` ?
10.3 µM (inactive)

---

# Test system: SK-OV-3
# MEASUREMENT_PROTOCOL: NCI tumour cell line growth inhibition, 48 h
Active and inactive are the calls of the source. No stated cut-off is given here; in the data, active = GI50 up to about 1.1 µM and inactive = higher. Non-standard residues stand in square brackets, D forms with d. Residues, ends and D or L forms follow the SMILES beside them. Ava = NCCCCC(=O)O; Mpa = O=C(O)CCS
Pick one: 1 for active, 0 for inactive

For orientation, consider the following solved cases.
[
  {
    "COMPOUND": "c1ccc(CSC2(SCc3ccccc3)CCCC2)cc1",
    "SYSTEM_UNDER_TEST": "SK-OV-3",
    "LABEL": 0
  },
  {
    "COMPOUND": "CCC1(O)C(=O)OCc2c1cc1n(c2=O)Cc2cc3c(N)cccc3nc2-1 (configuration not stated)",
    "SYSTEM_UNDER_TEST": "SK-OV-3",
    "LABEL": 1
  }
]

Answer briefly: the call reported for `O=C(CCCCCNC(=O)c1ccc(Cl)cc1)NO` in this assay.
0

Record: CC(NC(=O)CCS)C(=O)NC(C)C(=O)NC(Cc1c[nH]c2ccccc12)C(=O)NC(Cc1c[nH]cn1)C(=O)NC(CO)C(=O)NC(Cc1c[nH]c2ccccc12)C(=O)NCCCCC(=O)NC(C)C(=O)NC(CCC(N)=O)C(=O)NC(CCCCN)C(=O)NC(C)C(=O)NC(CCCNC(=N)N)C(=O)NC(CCCCN)C(N)=O (configuration not stated) ([Mpa]AAWHSW[Ava]AQKARK-NH2; configuration not given here)
0

What do you have for O=c1[nH]c(=O)n(C2CC(O)C(CO)O2)cc1C(OCC(F)(F)F)OCC(F)(F)F (configuration not stated) ?
0

Proceed to COc1ccc(Cc2nc3cc(C(F)(F)F)ccc3n2C[C@@H]2CCCN3CCCCC23)cc1 (some centres not stated)
0

Same again, this time with COc1ccccc1NC(=O)C(CC(C(=O)Nc1ccccc1OC)/C(C)=N/NC(=O)c1ccccc1O)/C(C)=N/NC(=O)c1ccccc1O (configuration not stated)
0

src = ChEMBL document CHEMBL1201862
